Biological target: PD-1/PD-L1 interaction (Homo sapiens, UniProt Q9NZQ7)
Construct: Tag1 (undisclosed kit tag)
Sequence (Q9NZQ7 19-238 limits assumed): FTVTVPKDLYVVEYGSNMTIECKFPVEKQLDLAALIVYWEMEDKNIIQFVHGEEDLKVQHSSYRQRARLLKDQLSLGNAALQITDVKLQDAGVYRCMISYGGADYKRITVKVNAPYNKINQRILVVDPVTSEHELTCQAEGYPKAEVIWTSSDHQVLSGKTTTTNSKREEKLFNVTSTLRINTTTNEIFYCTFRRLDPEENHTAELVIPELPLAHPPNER
Assay: PD-1/PD-L1 Homogenous Time-Resolved Fluorescence (HTRF) binding assay (CisBio kit)
Conditions: Biochemical PD1/PD-L1 inhibition
pIC50: −log10 of the molar value.
test readout: pIC50

Illustrative cases are given below, each with its answer.
1) Cc1c(COc2cc(OCc3cccc(C#N)c3)c(CN3CCCC[C@H]3C(N)=O)c3c2CCC3)cccc1-c1ccccc1; > 7.00
2) Cc1c(COc2cc(OCc3cccc(C#N)c3)c(CNCCCC(=O)O)c3c2CCC3)cccc1-c1ccccc1; > 7.00
3) COc1cc(OCc2cccc(-c3ccccc3)c2C#N)c2c(c1CN1CCCCC1CC(=O)O)CCC2 (stereo not drawn); 6.30 to 7.00

Look at this compound and give its reported pIC50. Cc1c(COc2ccc(CN3CC4(COC4)C3)c3c2CCC3)cccc1-c1ccccc1
< 6.30

Look at this compound and give its reported pIC50. CC(=O)NC1CCCN(Cc2c(OCc3cccc(C#N)c3)cc(OCc3cccc(-c4ccccc4)c3C)c3c2CCC3)C1 (stereo not drawn)
> 7.00

Look at this compound and give its reported pIC50. Cc1c(COc2ccc(CNC(C)C(=O)O)c3c2CCC3)cccc1-c1ccccc1 (stereo not drawn)
< 6.30

Look at this compound and give its reported pIC50. Cc1c(COc2cc(OCc3cncc(C#N)c3)c(CN3CC4(CC4)C[C@H]3C(=O)O)c3c2CCC3)cccc1-c1ccccc1
> 7.00

Look at this compound and give its reported pIC50. CC(=O)N(C)CCNCc1c(OCc2cccc(C#N)c2)cc(OCc2cccc(-c3ccccc3)c2C)c2c1CCC2
> 7.00

Look at this compound and give its reported pIC50. COc1cc(OCc2cccc(-c3ccccc3)c2C(F)(F)F)c2c(c1CN1C[C@H](O)C[C@H]1C(=O)O)CCC2
< 6.30

Every entry's value here was drawn from patent US11529341B2.
